- method-description: Single-dose pharmacokinetic and metabolic disposition study of [14C]tacrine HCl in human male volunteers
- Format: in vivo
- measurement-parameters: human, plasma, po; read-out: Time to maximum plasma concentration (tmax)
property-name: Tmax

Need Tmax, item `Cl.Nc1c2c(nc3ccccc13)CCCC2.O`
~2 h

----------
- study-system: P450 1A2 (Homo sapiens, UniProt P05177)
- Sequence (P05177 2-516 limits assumed): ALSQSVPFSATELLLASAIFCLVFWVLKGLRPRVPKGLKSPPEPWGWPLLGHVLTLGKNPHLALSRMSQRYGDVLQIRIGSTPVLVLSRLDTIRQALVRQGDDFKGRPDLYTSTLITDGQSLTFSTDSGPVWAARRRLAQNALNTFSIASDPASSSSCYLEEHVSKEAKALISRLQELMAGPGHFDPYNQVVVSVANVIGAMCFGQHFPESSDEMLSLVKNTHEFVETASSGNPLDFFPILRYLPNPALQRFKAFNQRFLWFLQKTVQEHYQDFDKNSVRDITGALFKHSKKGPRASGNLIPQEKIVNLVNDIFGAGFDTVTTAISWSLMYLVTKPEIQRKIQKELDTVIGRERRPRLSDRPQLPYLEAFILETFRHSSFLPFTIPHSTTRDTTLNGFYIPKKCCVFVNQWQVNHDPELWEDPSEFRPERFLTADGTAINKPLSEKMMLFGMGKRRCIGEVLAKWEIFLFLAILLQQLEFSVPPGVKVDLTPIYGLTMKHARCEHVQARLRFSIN
- method-description: in vitro
- measurement-parameters: human, microsomes
property-name: Km

Need Km, item Cl.Nc1c2c(nc3ccccc13)CCCC2.O [Tacrine, monohydrate monohydrochloride]
< 5 µM
